# Test system: Glutamate NMDA receptor; GRIN1/GRIN2A (Homo sapiens, UniProt Q05586+Q12879)
# Test protocol: Inhibition of human recombinant NR1/NR2A receptor expressed in U2OS assessed as change in intracellular calcium level by FLIPR assay
# Type: cell-based
# Design: concentration or dose not given beside the values
Measurement type: Activity (%)

> print(dat)
                                   compound                               test.system  limit.qualifier  quantitative.result
1    FC(F)(F)COc1cccc(C2(N3CCCCC3)CCCCC2)c1  Glutamate NMDA receptor; GRIN1/GRIN2A (Homo sapiens, UniProt Q05586+Q12879)                =                   94
2  CNC1(c2ccccc2Cl)CCCCC1=O (stereo not drawn)  Glutamate NMDA receptor; GRIN1/GRIN2A (Homo sapiens, UniProt Q05586+Q12879)                >                  100
3  O=C1NCCC1(c1ccccc1)N1CCCCC1 (stereo not drawn)  Glutamate NMDA receptor; GRIN1/GRIN2A (Homo sapiens, UniProt Q05586+Q12879)                =                   80
4  CNC1(c2ccccc2Cl)CCCNC1=O (stereo not drawn)  Glutamate NMDA receptor; GRIN1/GRIN2A (Homo sapiens, UniProt Q05586+Q12879)                =                   80
5            COc1ccc(C2(N3CCCCC3)CCCCC2)cc1  Glutamate NMDA receptor; GRIN1/GRIN2A (Homo sapiens, UniProt Q05586+Q12879)                =                   94
6  O=C1NCCCC1(c1ccccc1)N1CCCCC1 (stereo not drawn)  Glutamate NMDA receptor; GRIN1/GRIN2A (Homo sapiens, UniProt Q05586+Q12879)                =                   80
7         CCCCOc1cccc(C2(N3CCCCC3)CCCCC2)c1  Glutamate NMDA receptor; GRIN1/GRIN2A (Homo sapiens, UniProt Q05586+Q12879)                =                   94
8  CNC1(c2ccc(OC)cc2Cl)CCCCC1=O (stereo not drawn)  Glutamate NMDA receptor; GRIN1/GRIN2A (Homo sapiens, UniProt Q05586+Q12879)                =                   80
